protocol-notes: Permeability of the compound assessed as compound enrichment in membrane compartment measured after 16 hrs by PAMPA assay relative to control
Type: ADME
measured-parameter: fold change (FC)
One number for each entry.

# molecule, measured-parameter, value-observed
measured = [
    ("CC(C)n1nc(C(=O)O)cc1C1CC1c1ccc(OCc2c(-c3c(Cl)cccc3Cl)noc2C2CC2)cc1Cl (racemic)", "fold change (FC)", 22),
    ("O=C(O)c1ccc([C@H]2C[C@](O)(c3ccc(OCc4c(-c5c(Cl)cccc5Cl)noc4C4CC4)cc3Cl)C2)cc1", "fold change (FC)", 9),
    ("O=C(O)c1cccc(N2CC(O)(c3ccc(OCc4c(-c5c(Cl)cccc5Cl)noc4C4CC4)cc3Cl)C2)c1", "fold change (FC)", 40),
    ("O=C(O)c1ccc(C2CC2c2ccc(OCc3c(-c4c(Cl)cccc4Cl)noc3C3CC3)cc2Cl)cc1 (racemic)", "fold change (FC)", 30),
]

As a next step, examine the molecule that follows.
Would you kindly share the measured fold change (FC) for O=C(O)c1cccc(C2CC2c2ccc(OCc3c(-c4c(Cl)cccc4Cl)noc3C3CC3)cc2Cl)c1 (racemic) ?
33
